- target.desc: BDNF/NT-3 growth factors receptor (Homo sapiens) (UniProt Q16620);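 note: values are the mean percent inhibition of TRKB kinase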
- Sequence (Q16620 32-822 limits assumed): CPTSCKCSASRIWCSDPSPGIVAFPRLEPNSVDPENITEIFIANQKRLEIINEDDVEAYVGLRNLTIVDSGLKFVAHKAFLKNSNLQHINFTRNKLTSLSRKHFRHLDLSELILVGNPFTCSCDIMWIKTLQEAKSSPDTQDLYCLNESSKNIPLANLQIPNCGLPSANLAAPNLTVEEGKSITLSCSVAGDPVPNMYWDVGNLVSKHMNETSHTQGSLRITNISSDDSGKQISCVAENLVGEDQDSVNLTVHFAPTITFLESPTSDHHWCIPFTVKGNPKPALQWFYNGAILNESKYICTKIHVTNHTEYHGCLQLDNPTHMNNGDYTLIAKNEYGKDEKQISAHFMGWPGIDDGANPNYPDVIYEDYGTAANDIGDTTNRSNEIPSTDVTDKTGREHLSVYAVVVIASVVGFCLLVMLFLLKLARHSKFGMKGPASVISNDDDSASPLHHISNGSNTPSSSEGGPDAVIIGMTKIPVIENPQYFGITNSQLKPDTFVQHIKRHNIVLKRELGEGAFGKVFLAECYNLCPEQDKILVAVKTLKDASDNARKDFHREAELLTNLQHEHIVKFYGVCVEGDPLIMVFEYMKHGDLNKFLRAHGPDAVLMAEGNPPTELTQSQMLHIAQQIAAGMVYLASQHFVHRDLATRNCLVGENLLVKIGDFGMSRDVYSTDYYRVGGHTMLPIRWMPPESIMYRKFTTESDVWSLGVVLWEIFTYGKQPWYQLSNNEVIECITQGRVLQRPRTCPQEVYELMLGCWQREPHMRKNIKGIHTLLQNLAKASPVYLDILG
- details: at 1 µM
// reported inhibition for each item listed
I only need the number, in %, no unit after it.

As a guide, the following entries are already answered.
>>> df
                                smiles_repr  measured_metric  value
0  NS(=O)(=O)c1ccc(N/N=C2\C(=O)Nc3ccc(-c4cnco4)cc32)cc1       inhibition   46.4
1    O=C1Nc2ccccc2/C1=C/Nc1ccc(-n2cncn2)cc1       inhibition   56.5
2  COC(=O)Nc1nc2ccc(Sc3ccc(NC(=O)Nc4cc(C(F)(F)F)ccc4F)cc3)cc2[nH]1       inhibition   71.8

**Q:** Quick check: inhibition of "CCc1nccc2c1nc(-c1nonc1N)n2CC" ?
**A:** -1.57

**Q:** Quick check: inhibition of "CN(C)c1ccc2c(c1)/C(=C/Nc1ccc(S(N)(=O)=O)cc1)C(=O)N2" ?
**A:** 65.2

**Q:** Quick check: inhibition of "O=C(Nc1n[nH]c2nc(-c3ccco3)ccc12)C1CC1" ?
**A:** 2.36

**Q:** Quick check: inhibition of "NCc1ccc(-n2c(-c3nonc3N)nc3cnccc32)cc1" ?
**A:** 1.99

**Q:** Quick check: inhibition of "COc1ccc(C2=C(N3CCc4ccccc43)C(=O)NC2=O)cc1" ?
**A:** 2.97

**Q:** Quick check: inhibition of "Fc1ccc(-c2nc3n(c2-c2ccncc2)CCS3)cc1" ?
**A:** 0.16

**Q:** Quick check: inhibition of "CNC(=O)c1cncc(/C=C/c2c(C)cccc2C)c1" ?
**A:** 0.22

**Q:** Quick check: inhibition of "COc1ccc(-c2ccc3c(NC(=O)C4CC4)n[nH]c3n2)cc1" ?
**A:** 5.12

**Q:** Quick check: inhibition of "CN(C)CCOc1ccc(-c2cc(-c3ccc4c(c3)CCC4=NO)c(-c3ccncc3)o2)cc1" ?
**A:** 1.62

**Q:** Quick check: inhibition of "COc1cc(N2CCN(C(C)C)CC2)ccc1Nc1nc(Nc2ccc(F)cc2C(=O)NC[C@@H](O)CO)c2cc[nH]c2n1" ?
**A:** 5.92

**Q:** Quick check: inhibition of "O=C(Nc1n[nH]c2cc(-c3cc(F)ccc3F)ccc12)C1CC1" ?
**A:** 8.07

**Q:** Quick check: inhibition of "c1ccc(Oc2ccc(Nc3ncc(-c4ccccc4)o3)cc2)cc1" ?
**A:** 2.96
